- experimental target: Free fatty acid receptor 4 (Homo sapiens)
- Sequence (Q5NUL3 whole entry): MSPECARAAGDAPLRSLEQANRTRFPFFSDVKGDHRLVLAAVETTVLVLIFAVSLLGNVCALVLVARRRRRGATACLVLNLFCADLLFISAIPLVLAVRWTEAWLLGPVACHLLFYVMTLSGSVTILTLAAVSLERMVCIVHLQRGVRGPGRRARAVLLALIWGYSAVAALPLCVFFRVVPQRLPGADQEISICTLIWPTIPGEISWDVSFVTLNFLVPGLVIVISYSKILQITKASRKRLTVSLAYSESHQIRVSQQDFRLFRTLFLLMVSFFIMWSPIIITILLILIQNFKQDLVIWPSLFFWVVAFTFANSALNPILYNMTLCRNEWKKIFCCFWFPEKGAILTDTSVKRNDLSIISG
- assay name: Agonist activity at human GPR120 expressed in CHOK1 cells measured after 60 mins by IP1-HTRF assay
Note: every record was labeled by where its EC50 sits among 0 (below 100 nM), 1 (100 nM to below 300 nM), 2 (300 nM or more)

Previously resolved entries follow.
{"smiles record": "CCOc1ccc(Cl)c(-c2ccc(OCCCC(=O)O)cc2)c1", "label": 1}
{"smiles record": "O=C(O)CCCOc1ccc(-c2cc(OC3CC3)ccc2F)cc1", "label": 0}
{"smiles record": "O=C(O)CCCOc1ccc(-c2ccccc2C(F)(F)F)cc1", "label": 2}
{"smiles record": "O=C(O)CCc1cc2cc(-c3cccc(OC(F)(F)F)c3)ccc2o1", "label": 2}
{"smiles record": "CCOc1ccc(F)c(-c2ccc(OCCCC(=O)O)cc2)c1", "label": 1}
{"smiles record": "O=C(O)CCCOc1ccc(-c2cc(OC(F)(F)F)ccc2F)cc1", "label": 2}

Attention now turns to another entry.
Please report the category associated with O=C(O)CCCOc1ccc(-c2cccc(Oc3ccccc3)c2)cc1 , nothing else.
1

###

- experimental target: Free fatty acid receptor 4 (Homo sapiens)
- assay name: Agonist activity at human GPR120 expressed in CHOK1 cells measured after 60 mins by IP1-HTRF assay
Would you mind telling me the reported EC50 of each entry?
Answers are plain numbers, in nM.

{"molecule": "Cc1cc(-c2cc(OC(F)(F)F)ccc2Cl)ccc1OCCCC(=O)O", "measure": "EC50", "result": 185}

Record EC50 per entry; entries follow.
1. Cc1cc(OCCCC(=O)O)ccc1-c1cc(OC(F)(F)F)ccc1Cl
2. Cc1ccc(Oc2cccc(-c3ccc(OCCCC(=O)O)cc3)c2)cc1

254
182

###

- experimental target: UniProt Q7TMA4
- assay name: Agonist activity at mouse GPR120 expressed in CHOK1 cells measured after 60 mins by IP1-HTRF assay
measure: log10 EC50 (log10 of the value in µM)
Short version: log10 scale, EC50, µM.

Known results for compounds:
{"smiles record": "O=C(O)CCCOc1ccc(-c2cccc(Oc3ccccc3)c2)cc1", "log10 EC50": -1.17}
{"smiles record": "O=C(O)CCc1cc2cc(-c3cc(Cl)cc(OC4CCC4)c3)ccc2o1", "log10 EC50": -1.19}
{"smiles record": "O=C(O)CCCOc1c(F)cc(-c2cc(OC(F)(F)F)ccc2F)cc1F", "log10 EC50": -2.15}
{"smiles record": "Cc1cc(OCCCC(=O)O)ccc1-c1cc(OC(F)(F)F)ccc1Cl", "log10 EC50": -1.11}

Record log10 EC50 per entry; entries follow.
1. O=C(O)CCc1cc2cc(-c3cccc(OC(F)(F)F)c3)ccc2o1
2. O=C(O)CCCOc1ccc(-c2cc(OC3CC3)ccc2F)cc1

1: -0.49; 2: -1.49

###

- experimental target: Free fatty acid receptor 4 (Mus musculus) (UniProt Q7TMA4)
- assay name: Agonist activity at mouse GPR120 expressed in CHOK1 cells measured after 60 mins by IP1-HTRF assay relative to basal level
- Assay type: functional, cell-based
- Design: concentration or dose not given beside the values
- reported conditions: CHO-K1
measure: Activity (%)
Answers are plain numbers, in %.

Known results for compounds:
{"compound": "CC(CC(=O)O)c1cc2cc(-c3cc(OC(F)(F)F)ccc3F)ccc2o1 (racemic)", "experimental target": "Free fatty acid receptor 4 (Mus musculus) (UniProt Q7TMA4)", "Activity, %": 57}
{"compound": "CCOc1ccc(F)c(-c2ccc(OCCCC(=O)O)cc2)c1", "experimental target": "Free fatty acid receptor 4 (Mus musculus) (UniProt Q7TMA4)", "Activity, %": 58}

Now for another entry.
Give Activity only, for Cc1cc(-c2cc(OC(F)(F)F)ccc2Cl)ccc1OCCCC(=O)O , using Free fatty acid receptor 4 (Mus musculus) (UniProt Q7TMA4) data.
62

###

- assay name: Half life in mouse at 2 mg/kg, iv or 10 mg/kg, po
- Format: ADME, organism-based
- reported conditions: in vivo
Would you mind telling me the reported half-life of each entry?

Known results for compounds:
{"smiles record": "Cc1cc(-c2cc(OC(F)(F)F)ccc2Cl)cc(C)c1OCCCC(=O)O", "half-life": "5.5 h"}
{"smiles record": "O=C(O)CCCOc1ccc(-c2cc(OC(F)(F)F)ccc2Cl)cc1", "half-life": "1.3 h"}
{"smiles record": "O=C(O)CCc1cc2cc(-c3cc(OC(F)(F)F)ccc3F)ccc2o1", "half-life": "1.6 h"}

Now for another entry.
Indicate its recorded half-life; the compound in question is O=C(O)CCCOc1ccc(-c2noc3ccccc23)c(Cl)c1Cl
3.3 h

###

Would you mind telling me the reported Activity of each entry?
- experimental target: UniProt:O14842
- assay name: Agonist activity at human GPR40 measured after 60 mins by IP1-HTRF assay relative to basal level
- Assay type: functional
- Set-up: concentration or dose not given beside the values
Answers are plain numbers, in %.

{"compound": "CCOc1ccc(Cl)c(-c2ccc(OCCCC(=O)O)cc2)c1", "unit label": "%", "Activity": 30}
{"compound": "COc1cccc(Oc2cccc(-c3ccc(OCCCC(=O)O)cc3)c2)c1", "unit label": "%", "Activity": 101}

Record Activity per entry; entries follow.
1. O=C(O)CCCOc1ccc(-c2cc(OC(F)(F)F)ccc2Cl)cc1
2. O=C(O)CCc1cc2cc(-c3cc(OC(F)(F)F)ccc3F)ccc2o1
3. O=C(O)CCCOc1ccc(-c2cc(Oc3cccc(F)c3)ccc2F)cc1

1. 40
2. 38
3. 110

###

- experimental target: Free fatty acid receptor 1 (Homo sapiens, UniProt O14842)
- assay name: Agonist activity at human GPR40 measured after 60 mins by IP1-HTRF assay
measure: EC50

Known results for molecules:
{"molecule": "O=C(O)CCCOc1ccc(-c2ccccc2OC(F)(F)F)cc1", "measure": "EC50", "result": "> 9.95 µM"}
{"molecule": "O=C(O)CCCOc1ccc(-c2cc(Oc3cccnc3)ccc2Cl)cc1", "measure": "EC50", "result": "> 9.95 µM"}
{"molecule": "CC(CC(=O)O)c1cc2cc(-c3cc(OC(F)(F)F)ccc3F)ccc2o1 (racemic)", "measure": "EC50", "result": "> 9.95 µM"}
{"molecule": "O=C(O)CCCOc1ccc(-c2ccccc2C(F)(F)F)cc1", "measure": "EC50", "result": "> 9.95 µM"}
{"molecule": "O=C(O)CCCOc1ccc(-c2ccccc2Oc2ccccc2)cc1", "measure": "EC50", "result": "> 9.95 µM"}

Now for another entry.
Give EC50 only, for O=C(O)CCCOc1ccc(-c2cc(OC(F)(F)F)ccc2F)cc1 , using Free fatty acid receptor 1 (Homo sapiens, UniProt O14842) data.
4.22 µM

###

- experimental target: Free fatty acid receptor 4 (Homo sapiens) (UniProt Q5NUL3)
- Sequence (Q5NUL3 whole entry): as above
- assay name: Agonist activity at human GPR120 expressed in CHOK1 cells measured after 60 mins by IP1-HTRF assay relative to basal level
- Assay type: functional, cell-based
- Set-up: concentration or dose not given beside the values
- reported conditions: CHO-K1
Checkbox rule: Activity lower than 70% = Condition met; Activity not lower than 70% = Condition not met.

Previously resolved entries follow.
{"smiles record": "Cc1cc(-c2cc(OC(F)(F)F)ccc2Cl)ccc1OCCCC(=O)O", "label": "Condition met"}
{"smiles record": "O=C(O)CCCOc1ccc(-c2cc(Oc3cccc(F)c3)ccc2F)cc1", "label": "Condition not met"}
{"smiles record": "O=C(O)CCc1cc2cc(-c3cc(Cl)cc(OC4CCC4)c3)ccc2o1", "label": "Condition met"}
{"smiles record": "O=C(O)CCc1cc2cc(-c3cccc(OC4CCC4)c3)ccc2o1", "label": "Condition met"}

Attention now turns to another entry.
Please check: Activity for O=C(O)CCCOc1ccc(-c2cc(OC(F)(F)F)ccc2F)cc1 , strictly under 70% or not?
Condition met

###

Would you mind telling me the reported pEC50 of each entry?
- experimental target: Free fatty acid receptor 1 (Homo sapiens)
- assay name: Agonist activity at human GPR40 measured after 60 mins by IP1-HTRF assay
One number for each entry, as −log10 of the molar value.

{"smiles record": "O=C(O)CCCOc1ccc(-c2cccc(Oc3ccccc3)c2)cc1", "result": 5.17}

Indicate its recorded pEC50; the compound in question is COc1cccc(Oc2cccc(-c3ccc(OCCCC(=O)O)cc3)c2)c1
5.20

###

- experimental target: UniProtKB Q7TMA4
- Sequence (whole entry): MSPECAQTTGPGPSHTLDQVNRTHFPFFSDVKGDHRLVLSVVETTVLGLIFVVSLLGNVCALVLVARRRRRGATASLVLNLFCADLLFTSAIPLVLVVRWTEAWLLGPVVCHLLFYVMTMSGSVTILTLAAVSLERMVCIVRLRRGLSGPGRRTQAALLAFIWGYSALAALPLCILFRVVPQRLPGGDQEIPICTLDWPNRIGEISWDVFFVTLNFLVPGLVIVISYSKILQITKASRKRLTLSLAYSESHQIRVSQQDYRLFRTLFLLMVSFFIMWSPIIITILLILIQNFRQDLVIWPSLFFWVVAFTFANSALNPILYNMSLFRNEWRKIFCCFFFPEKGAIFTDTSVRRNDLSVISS
- assay name: Agonist activity at mouse GPR120 expressed in CHOK1 cells measured after 60 mins by IP1-HTRF assay relative to basal level
- Type: functional, cell-based
- Design: concentration or dose not given beside the values
- reported conditions: CHO-K1
// label 0 strictly below 60% in Activity; label 1 otherwise

Previously resolved entries follow.
{"molecule": "CCOc1ccc(Cl)c(-c2ccc(OCCCC(=O)O)cc2)c1", "experimental target": "UniProtKB Q7TMA4", "label": "label 1"}
{"molecule": "O=C(O)CCCOc1ccc(-c2noc3ccccc23)c(Cl)c1Cl", "experimental target": "UniProtKB Q7TMA4", "label": "label 0"}
{"molecule": "Fc1ccc(OC(F)(F)F)cc1-c1ccc2oc(CCc3nn[nH]n3)cc2c1", "experimental target": "UniProtKB Q7TMA4", "label": "label 0"}
{"molecule": "O=C(O)CCCOc1ccc(-c2cc(OC(F)(F)F)ccc2F)cc1", "experimental target": "UniProtKB Q7TMA4", "label": "label 0"}
{"molecule": "Cc1cc(-c2cc(OC(F)(F)F)ccc2Cl)cc(C)c1OCCCC(=O)O", "experimental target": "UniProtKB Q7TMA4", "label": "label 1"}
{"molecule": "Cc1ccc(Oc2cccc(-c3ccc(OCCCC(=O)O)cc3)c2)cc1", "experimental target": "UniProtKB Q7TMA4", "label": "label 1"}
{"molecule": "Cc1cc(-c2cc(OC(F)(F)F)ccc2F)ccc1OCCCC(=O)O", "experimental target": "UniProtKB Q7TMA4", "label": "label 0"}
{"molecule": "O=C(O)CCc1cc2cc(-c3cc(C(=O)C4CC4)ccc3F)ccc2o1", "experimental target": "UniProtKB Q7TMA4", "label": "label 1"}
{"molecule": "O=C(O)CCc1cc2cc(-c3cc(OC(F)(F)F)ccc3Cl)ccc2o1", "experimental target": "UniProtKB Q7TMA4", "label": "label 1"}
{"molecule": "O=C(O)CCc1cc2cc(-c3cc(OC(F)(F)F)ccc3F)ccc2o1", "experimental target": "UniProtKB Q7TMA4", "label": "label 1"}

Check the entry O=C(O)CCc1cc2cc(-c3cccc(OC4CCC4)c3)ccc2o1 : does Activity equal or exceed 60%?
label 1

Check the entry O=C(O)CCC1Cc2cc(-c3cc(OC(F)(F)F)ccc3F)ccc2O1 (stereo in doubt; 45) : does Activity equal or exceed 60%?
label 1

Check the entry Cc1cc(OCCCC(=O)O)ccc1-c1cc(OC(F)(F)F)ccc1Cl : does Activity equal or exceed 60%?
label 0

Check the entry Cc1cc(OC2CCC2)cc(-c2ccc3oc(CCC(=O)O)cc3c2)c1 : does Activity equal or exceed 60%?
label 1

Check the entry O=C(O)CCCOc1ccc(-c2cc(Oc3cccc(F)c3)ccc2F)cc1 : does Activity equal or exceed 60%?
label 1
